All values here come from paper PMC11062922.

test system: PKN3; details: read-out: Rep 3; hek293t cells;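 also: NanoBRET target engagement in HEK293T cells transiently expressing full-length PKN3 with C-terminal NanoLuc, displacement of fluorescent tracer K5 (500 nM), BRET read after 2 h equilibration at 37 °C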
Property Measured: IC50 (µM)
Entry rule: numbers only, all in µM.

| Compound | Numeric Result |
| --- | --- |
| Cl.ON=C1CCc2cc(-c3nc(C4CCNCC4)[nH]c3-c3ccncc3)ccc21 | 50.1 |
| CCn1c(-c2nonc2N)nc2c(C#CC(C)(C)O)nc(CN3CCCC3)cc21 [GSK1000163A] | 6.13 |
| CCn1c(-c2nonc2N)nc2c(C#CC(C)(C)O)nc(OCCNC)cc21.Cl [GSK949675A] | 0.149 |

Here's the next entry for you.
Exam item: Param item = Fc1ccc(-c2c(-c3ccncc3)[nH]c3cccnc23)cc1 ; retrieve measured IC50.
Marked response: 0.164
